test system: Avena sterilis; test: Herbicidal activity against Avena sterilis accession P16 assessed as induction of weed mortality; format: functional
VALUE TYPE: GR50 (gAi/ha)

{"COMPOUND": "CCOC(=O)[C@@H](C)Oc1ccc(Oc2nc3ccc(Cl)cc3o2)cc1 [FENOXAPROP-P-ETHYL]", "RELATION QUALIFIER": "=", "NUMERIC READOUT": 505}
{"COMPOUND": "C#CCOC(=O)[C@@H](C)Oc1ccc(Oc2ncc(Cl)cc2F)cc1 [CLODINAFOP PROPARGYL]", "RELATION QUALIFIER": "=", "NUMERIC READOUT": 169}
{"COMPOUND": "CCc1cc(C)cc(CC)c1-c1c(OC(=O)C(C)(C)C)n2n(c1=O)CCOCC2 [PINOXADEN]", "RELATION QUALIFIER": "<", "NUMERIC READOUT": 40}
{"COMPOUND": "COCc1cnc(C2=NC(C)(C(C)C)C(=O)N2)c(C(=O)O)c1 (stereo unspecified) [IMAZAMOX]", "RELATION QUALIFIER": "<", "NUMERIC READOUT": 50}
{"COMPOUND": "COC(=O)C(C)Oc1ccc(Oc2ccc(Cl)cc2Cl)cc1 (stereo unspecified) [DICLOFOP-METHYL]", "RELATION QUALIFIER": "=", "NUMERIC READOUT": 5442}
{"COMPOUND": "CCO/N=C(\\CC)C1=C(O)CC(c2c(C)cc(C)cc2C)CC1=O (stereo unspecified) [TRALKOXYDIM]", "RELATION QUALIFIER": "=", "NUMERIC READOUT": 907}
